Where a name gives a salt, the structure may show the parent alone.
For each record, write down the corresponding melting point.

Query: Would you kindly share the measured melting point for C(#Cc1cncc(N2CCCNCC2)c1)c1ccccc1 (as salt: fumaric acid salt) ?
Response: 155.2 to 157.8 °C

Query: Bench note: what melting point did Clc1ncc(N2CCCNCC2)cc1Br (as salt: fumaric acid salt) show?
Response: 188.2 to 189.2 °C

Query: melting point lookup needed for CCCCCOc1cncc(N2CCN(C)CC2)c1 (as salt: fumaric acid salt) , thanks.
Response: 113.6 to 115.1 °C

Query: melting point; subject: Brc1cncc(N2CCCNCCC2)c1 (as salt: fumaric acid salt)
Response: 151 to 153 °C

Query: Which melting point value is on record for Ic1cncc(N2CCCNCC2)c1 (as salt: fumaric acid salt) ?
Response: 178 to 180 °C

Query: Quick check: melting point of C=CC(C)Oc1cncc(N2CCCNCC2)c1 (stereo not drawn) (as salt: fumaric acid salt) ?
Response: 129.5 to 133.6 °C

Query: Entry under review: c1ncc(N2CCCNCC2)cc1OCC1CCC1 (as salt: fumaric acid salt) . Reported melting point?
Response: 158.9 to 159.9 °C

Query: Give the measured melting point of C=COc1cc(N2CCCNCC2)cnc1Br (as salt: fumaric acid salt) .
Response: 128.6 °C

Query: # query: melting point of entry Clc1cc(N2CCCNCC2)cnc1Br (as salt: fumaric acid salt)
Response: 213 to 216 °C

Query: For Brc1ccc(N2CCCNCC2)nn1 (as salt: fumaric acid salt) , what is its reported melting point?
Response: 169 to 171 °C

Query: melting point lookup needed for c1ncc(N2CCCNCC2)cc1N1CCCC1 (as salt: fumaric acid salt) , thanks.
Response: 141.5 to 143 °C

Query: For the compound shown here, CCCCN(C)c1cncc(N2CCCNCC2)c1 (as salt: fumaric acid salt) , give the reported melting point.
Response: 140.5 to 141.8 °C

Query: Form field: reported melting point of CCOc1cncc(N2CCCN(c3cncc(OCC)c3)CC2)c1 (as salt: fumaric acid salt)
Response: 155 to 156 °C

Query: Look at this compound and give its reported melting point. CC1OC1Oc1cncc(N2CCCNCC2)c1 (stereo not drawn)
Response: 135.2 to 139 °C

Query: # query: melting point of entry CCCC=CCOc1cncc(N2CCCNCC2)c1 (as salt: fumaric acid salt)
Response: 126.8 to 130.2 °C

Query: Any idea what melting point was measured for COc1cc(N2CCCNCC2)cnc1Br (as salt: fumaric acid salt) ?
Response: 210 to 212 °C

Query: Looking for the measured melting point of C=COc1cncc(N2CCCN(c3cncc(OC=C)c3)CC2)c1 (as salt: fumaric acid salt) , can you help?
Response: 157 to 158.5 °C

Query: Need melting point, item Brc1cc(N2CCCNCC2)cnc1Br (as salt: fumaric acid salt)
Response: 192.1 to 193.2 °C
